Protocol Notes: Metabolic stability in mouse liver microsomes (in vitro t1/2)
Assay type: in vitro ADME
Measurement Context: mouse liver microsomes 0.5 mg/mL, 2 μM compound; read-out: Mouse microsome t1/2, min
Outcome Measure: half-life at 2 µM (h)
Quick note: give the figure in h, leave out the unit.

Past entries and their recorded results:
# Compound, Units Symbol, Data Value
data = [
    ("CCCn1ncc2ccc(-c3cc(COC(C)(C)C(=O)O)nn3-c3ccccc3N3CCC3)cc21", "h", 2.8),
    ("CC(C)(C)COc1cccc(-c2cc(COC(C)(C)C(=O)O)nn2-c2ccccc2Cl)c1", "h", 5.57),
    ("CC(C)(OCc1cc(-c2cccc(OC3CCC3)c2)n(-c2ccccc2Cl)n1)C(=O)O", "h", 11.8),
]

QUERY: Look up half-life at 2 µM: `COc1cccc(-c2cc(COC(C)(C)C(=O)O)nn2Cc2ccccc2OC)c1`
RESULT: 20

QUERY: And what about the compound `CC(C)(OCc1cc(-c2cccc(OC3CC3)c2)n(-c2ccc(F)cc2N2CCC2)n1)C(=O)O` ?
RESULT: 2.03

QUERY: Now give it for `COc1ccc(-c2cc(COC(C)(C)C(=O)O)nn2Cc2ccccc2Cl)s1` too.
RESULT: 4.5

QUERY: Try `Cn1ncc2cccc(-n3nc(COC(C)(C)C(=O)O)cc3-c3cccc(OCC4CCC4)c3)c21` next.
RESULT: 3.82

QUERY: Consider next the compound `COc1csc(-c2cc(COC(C)(C)C(=O)O)nn2Cc2ccccc2Cl)c1` in the same way.
RESULT: 9.33

QUERY: # iterate: `CC(C)(OCc1cc(-c2cccc(OC3CC3)c2)n(-c2ccccc2N2CCCC2)n1)C(=O)O`
RESULT: 0.633

QUERY: Would you kindly repeat that for `CC(C)(OCc1cc(-c2cccc(OC3CC3)c2)n(-c2ccccc2N2CCC2)n1)C(=O)O` ?
RESULT: 1.22

QUERY: And then `CC[C@@](C)(OCc1cc(-c2cccc(OC)c2)n(Cc2ccccc2Cl)n1)C(=O)O` , what is it?
RESULT: 3.1

====

Protocol Notes: Metabolic stability in rat liver microsomes (in vitro t1/2)
Assay type: in vitro ADME
Measurement Context: rat liver microsomes, 60 min
Outcome Measure: Rat microsome % 60 min (%)
Provide only the numeric value, understood in %.

These solved cases illustrate the format of a correct answer.
# Compound Structure, Rat microsome % 60 min [%]
rows = [
    ("Cn1ncc2cccc(-n3nc(COC(C)(C)C(=O)O)cc3-c3cccc(OC4CCC4)c3)c21", 102),
    ("CC[C@@](C)(OCc1cc(-c2cc(OC)cc(OC)c2)n(-c2ccccc2Cl)n1)C(=O)O", 90),
]

QUERY: Which Rat microsome % 60 min is listed for `CC(C)(OCc1cc(-c2cccc(OC3CC3)c2)n(-c2ccccc2N2CCCC2)n1)C(=O)O` ?
RESULT: 33

====

Mouse microsome % 60 min values for the molecules below.
Protocol Notes: Metabolic stability in mouse liver microsomes (in vitro t1/2)
Type: in vitro ADME
Measurement Context: mouse liver microsomes, 60 min
The response must be a number in % with no trailing unit.

QUERY: I have this molecule here, COc1ccc(-c2cc(COC(C)(C)C(=O)O)nn2Cc2ccccc2Cl)s1 [Example 64] , and I need its recorded Mouse microsome % 60 min.
RESULT: 84

QUERY: Same question for COc1cccc(-c2c(C)c(COC(C)(C)C(=O)O)nn2Cc2ccccc2Cl)c1 [Example 54] please.
RESULT: 95

QUERY: Same read-out for CCn1ncc2ccc(-c3cc(COC(C)(C)C(=O)O)nn3-c3ccccc3N3CCC3)cc21 [Example 228] ?
RESULT: 96

QUERY: Could you do the same for Cc1ccccc1-n1nc(COC(C)(C)C(=O)O)cc1-c1cccc(OC2CC2)c1 [Example 188] , please?
RESULT: 92

====

System Name: UniProt O15427
Protocol Notes: Assay 3: MCT4-mediated lactate transport in MDA-MB-231 breast cancer cells
Type: cell-based
Measurement Context: MDA-MB-231 cells; lactate transport
// values below are reported IC50
Express the result in nM but write the number alone.

QUERY: Item `CCn1ncc2ccc(-c3cc(COC(C)(C)C(=O)O)nn3-c3ccccc3N3CCC3)cc21` has what recorded IC50?
RESULT: 5.9

====

# maps each entry to its IC50
System Name: MCT4 (Homo sapiens (Human))
Protocol Notes: Assay 3: MCT4-mediated lactate transport in MDA-MB-231 breast cancer cells
Assay type: cell-based
Measurement Context: MDA-MB-231 cells; lactate transport
Give the quantity in nM, number only.

# Compound Structure, Outcome Measure, Data Value
measured = [
    ("Cn1ncc2cccc(-n3nc(COC(C)(C)C(=O)O)cc3-c3cccc(OCC4CCC4)c3)c21", "IC50", 1.7),
    ("CCOc1ccccc1Cn1nc(COC(C)(C)C(=O)O)cc1-c1cccc(OC)c1", "IC50", 6.7),
    ("Cn1ncc2cccc(-n3nc(COC(C)(C)C(=O)O)cc3-c3cccc(OCC(C)(C)C)c3)c21", "IC50", 0.59),
]

QUERY: Form field: reported IC50 of `CC(C)(OCc1cc(-c2cccc(OC3CC3)c2)n(-c2cccc3[nH]ncc23)n1)C(=O)O`
RESULT: 830

====

System Name: MCT4 (Homo sapiens (Human))
Protocol Notes: Assay 3: MCT4-mediated lactate transport in MDA-MB-231 breast cancer cells
Type: cell-based
Measurement Context: MDA-MB-231 cells; lactate transport
Outcome Measure: log10(IC50) (log10 of the value in nM)
The base-10 logarithm of IC50, taken with IC50 in nM, is what appears here.

Look over these answered cases.
# Compound Structure, System Name, log10(IC50)
rows = [
    ("CCOc1ccccc1-n1nc(COC(C)(C)C(=O)O)cc1-c1cccc(OC2CC2)c1", "MCT4 (Homo sapiens (Human))", 1.63),
    ("CC(C)COc1cccc(-c2cc(COC(C)(C)C(=O)O)nn2Cc2cccc(N(C)C)c2)c1", "MCT4 (Homo sapiens (Human))", 1.56),
    ("CC(C)(OCc1cc(-c2ccc3c(c2)OCO3)n(Cc2ccccc2Cl)n1)C(=O)O", "MCT4 (Homo sapiens (Human))", 1.60),
    ("COc1cccc(-c2cc(COC(C)(C)C(=O)O)nn2-c2ccccc2OC(C)C)c1", "MCT4 (Homo sapiens (Human))", 2.56),
    ("Cc1ccccc1-n1nc(COC(C)(C)C(=O)O)cc1-c1cccc(OC2CC2)c1", "MCT4 (Homo sapiens (Human))", 0.88),
    ("CC(C)(OCc1cc(-c2cccc(OC3CC3)c2)n(-c2ccccc2N2CCC2)n1)C(=O)O", "MCT4 (Homo sapiens (Human))", 0.32),
]

Pending compound:
QUERY: Form field: reported log10(IC50) of `CCn1ncc2ccc(-c3cc(COC(C)(C)C(=O)O)nn3Cc3ccccn3)cc21`
RESULT: 2.93

====

System Name: MCT1 (Homo sapiens (Human), UniProt P53985)
Sequence (P53985 whole entry): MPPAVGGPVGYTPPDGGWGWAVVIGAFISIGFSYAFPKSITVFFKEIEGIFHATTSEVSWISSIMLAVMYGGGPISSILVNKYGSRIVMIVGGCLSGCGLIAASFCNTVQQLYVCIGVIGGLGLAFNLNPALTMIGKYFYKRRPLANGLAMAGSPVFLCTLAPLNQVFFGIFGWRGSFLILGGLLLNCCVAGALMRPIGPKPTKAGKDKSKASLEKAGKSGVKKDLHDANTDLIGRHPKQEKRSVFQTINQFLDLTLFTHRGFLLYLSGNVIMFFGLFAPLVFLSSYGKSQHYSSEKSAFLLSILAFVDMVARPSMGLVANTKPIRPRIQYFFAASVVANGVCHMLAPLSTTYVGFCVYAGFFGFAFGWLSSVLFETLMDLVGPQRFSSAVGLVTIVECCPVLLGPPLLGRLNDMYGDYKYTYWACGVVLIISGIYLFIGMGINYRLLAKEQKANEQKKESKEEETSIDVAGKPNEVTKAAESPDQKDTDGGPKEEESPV
Sequence (P35613 140-385 partner): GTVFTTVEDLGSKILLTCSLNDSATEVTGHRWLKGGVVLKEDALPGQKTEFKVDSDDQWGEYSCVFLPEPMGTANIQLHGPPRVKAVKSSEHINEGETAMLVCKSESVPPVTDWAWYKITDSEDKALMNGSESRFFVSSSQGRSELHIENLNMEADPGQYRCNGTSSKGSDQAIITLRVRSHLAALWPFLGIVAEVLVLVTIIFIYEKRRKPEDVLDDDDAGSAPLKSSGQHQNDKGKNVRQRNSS
Protocol Notes: Assay 4: MCT1-mediated lactate transport in BT20 breast cancer cells
Assay type: cell-based
Measurement Context: Table 27
// reported log10(IC50) for each item listed
Friendly reminder: values = log10 of IC50, unit nM.

Examples with their reported log10(IC50) follow.
# Compound Structure, Data Value
measured = [
    ("CC(C)COc1cccc(-c2cc(COC(C)(C)C(=O)O)nn2-c2cccc3cnn(C)c23)c1", 4.51),
    ("CC(C)(OCc1cc(-c2ccc(OC3CC3)s2)n(Cc2ccccc2Cl)n1)C(=O)O", 2.81),
    ("CCOc1cc(OC)cc(-c2cc(COC(C)(C)C(=O)O)nn2Cc2ccccc2OCC)c1", 4.23),
]

QUERY: GET /values?readout=log10(IC50)&system=MCT1 (Homo sapiens (Human), UniProt P53985)&item= `CN(C)c1ccccc1-n1nc(COC(C)(C)C(=O)O)cc1-c1cccc(OC2CC2)c1`
RESULT: 4.86

QUERY: Input `Cn1ncc2cccc(-n3nc(COC(C)(C)C(=O)O)cc3-c3cccc(OCC(C)(C)C)c3)c21`
RESULT: 4.56

QUERY: Next up: `CC(C)(OCc1cc(-c2cccc(OC3CC3)c2)n(-c2ccc(F)cc2N2CCC2)n1)C(=O)O`
RESULT: 4.93

====

System Name: MCT4 (Homo sapiens (Human), UniProt O15427)
Sequence (O15427 whole entry, looked up): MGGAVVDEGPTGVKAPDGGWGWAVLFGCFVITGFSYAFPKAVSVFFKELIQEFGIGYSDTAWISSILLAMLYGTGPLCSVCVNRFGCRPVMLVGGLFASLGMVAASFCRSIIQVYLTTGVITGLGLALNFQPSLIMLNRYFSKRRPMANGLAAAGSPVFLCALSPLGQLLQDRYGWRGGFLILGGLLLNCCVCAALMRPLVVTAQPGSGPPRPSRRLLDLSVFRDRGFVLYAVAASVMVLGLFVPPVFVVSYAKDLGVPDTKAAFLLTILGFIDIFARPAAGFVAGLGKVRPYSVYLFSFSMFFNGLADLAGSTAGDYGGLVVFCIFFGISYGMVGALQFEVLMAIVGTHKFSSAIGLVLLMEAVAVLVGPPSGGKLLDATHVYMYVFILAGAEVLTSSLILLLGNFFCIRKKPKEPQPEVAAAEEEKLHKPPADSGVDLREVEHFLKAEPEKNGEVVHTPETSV
Sequence (P35613 whole entry partner, looked up): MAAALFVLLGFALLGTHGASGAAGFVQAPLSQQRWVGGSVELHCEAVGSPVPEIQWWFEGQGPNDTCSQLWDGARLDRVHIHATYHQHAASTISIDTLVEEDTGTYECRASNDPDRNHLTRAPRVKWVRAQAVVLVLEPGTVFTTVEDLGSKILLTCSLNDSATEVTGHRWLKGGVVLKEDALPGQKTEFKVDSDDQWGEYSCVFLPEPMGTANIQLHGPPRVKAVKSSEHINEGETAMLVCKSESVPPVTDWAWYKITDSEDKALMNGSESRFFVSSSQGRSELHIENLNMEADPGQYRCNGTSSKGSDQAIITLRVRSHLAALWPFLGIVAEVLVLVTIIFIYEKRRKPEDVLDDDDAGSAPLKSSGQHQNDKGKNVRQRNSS
Protocol Notes: Assay 3: MCT4-mediated lactate transport in MDA-MB-231 breast cancer cells
Format: cell-based
Measurement Context: MDA-MB-231 cells; lactate transport
Measured log10(IC50) values are reported for all entries that follow.
// units: nM (pre-log); metric: IC50; scale: log10

# Compound, System Name, Data Value
rows = [
    ("CCOc1cc(OC)cc(-c2cc(COC(C)(C)C(=O)O)nn2Cc2ccccc2OCC)c1", "MCT4 (Homo sapiens (Human), UniProt O15427)", 0.28),
    ("CC(C)(OCc1cc(-c2cccc(OC3CC3)c2)n(-c2ccc(Cl)cc2Cl)n1)C(=O)O", "MCT4 (Homo sapiens (Human), UniProt O15427)", 1.34),
]

Then this compound:
QUERY: So what's the measured log10(IC50) for this one? `CC(C)(OCc1cc(-c2cccc(OCC3CCC3)c2)n(-c2ccccc2Cl)n1)C(=O)O`
RESULT: 0.40
